Listing of recorded MIC by entry.
- System: Pseudomonas aeruginosa
- assay: Antibacterial activity against Pseudomonas aeruginosa ATCC 27853 after 18 to 24 hrs by twofold serial dilution method
- Type: functional
Please state the figure in µg/mL; there is no need to write the unit.

Below, each entry is followed by its recorded MIC result.
compound: CCO/N=C1\CN(c2nc3c(cc2F)c(=O)c(C(=O)O)cn3C2CC2)CC1/C(N)=N\OC (configuration not stated)
quantity.measured: MIC
numeric.readout: 64
--
compound: CO/N=C1\CN(c2c(F)cc3c(=O)c(C(=O)O)cn(C4CC4)c3c2F)CC1/C(N)=N\OC (configuration not stated)
quantity.measured: MIC
numeric.readout: 4
--
compound: CO/N=C1\CN(c2c(F)cc3c(=O)c(C(=O)O)cn4c3c2OC[C@@H]4C)CC1/C(N)=N\O (some centres not stated)
quantity.measured: MIC
numeric.readout: 32
--
compound: CO/N=C1\CN(c2nc3c(cc2F)c(=O)c(C(=O)O)cn3C2CC2)CC1/C(N)=N\O (configuration not stated)
quantity.measured: MIC
numeric.readout: 4
--
compound: CCO/N=C1\CN(c2nc3c(cc2F)c(=O)c(C(=O)O)cn3C2CC2)CC1/C(N)=N\OCC (configuration not stated)
quantity.measured: MIC
numeric.readout: 128
--
compound: CCO/N=C1\CN(c2c(F)cc3c(=O)c(C(=O)O)cn(C4CC4)c3c2F)CC1/C(N)=N\OC (configuration not stated)
quantity.measured: MIC
numeric.readout: 8
--
compound: CO/N=C1\CN(c2c(F)cc3c(=O)c(C(=O)O)cn(C4CC4)c3c2OC(F)F)CC1/C(N)=N\O (configuration not stated)
quantity.measured: MIC
numeric.readout: 128
--
compound: CCn1cc(C(=O)O)c(=O)c2cc(F)c(N3C/C(=N\OC)C(/C(N)=N\O)C3)c(F)c21 (configuration not stated)
quantity.measured: MIC
numeric.readout: 1

Q) Would you kindly share the measured MIC for C[C@H]1COc2c(N3CCN(C)CC3)c(F)cc3c(=O)c(C(=O)O)cn1c23.C[C@H]1COc2c(N3CCN(C)CC3)c(F)cc3c(=O)c(C(=O)O)cn1c23.O ?
A) 0.5

Q) Would you kindly share the measured MIC for CO/N=C1\CN(c2c(F)cc3c(=O)c(C(=O)O)cn(C4CC4)c3c2OC)CC1/C(N)=N\OC (configuration not stated) ?
A) 64

Q) Would you kindly share the measured MIC for CCn1cc(C(=O)O)c(=O)c2cc(F)c(N3C/C(=N\OC)C(/C(N)=N\OC)C3)c(F)c21 (configuration not stated) ?
A) 128

====

- Tested on: Staphylococcus epidermidis
- assay: Antibacterial activity against methicillin-resistant Staphylococcus epidermidis 09-4 after 18 to 24 hrs by twofold serial dilution method
- Assay type: functional
quantity.measured: MIC (µg/mL)
Please state the figure in µg/mL; there is no need to write the unit.

molecule: CO/N=C1\CN(c2c(F)cc3c(=O)c(C(=O)O)cn4c3c2OC[C@@H]4C)CC1/C(N)=N\O (some centres undefined)
MIC / µg/mL: 0.25

Q) Would you kindly share the measured MIC for CCO/N=C1\CN(c2c(F)cc3c(=O)c(C(=O)O)cn(C4CC4)c3c2OC)CC1/C(N)=N\O (centres undefined) ?
A) 0.5

====

Listing of recorded MIC by entry.
- Test system: Klebsiella pneumoniae
- assay: Antibacterial activity against Klebsiella pneumoniae 09-23 after 18 to 24 hrs by twofold serial dilution method
- Type: functional

compound: CCO/N=C1\CN(c2c(F)cc3c(=O)c(C(=O)O)cn(C4CC4)c3c2OC(F)F)CC1/C(N)=N\OC (stereo not given)
target.system: Klebsiella pneumoniae
MIC: 32 µg/mL

compound: CCO/N=C1\CN(c2c(F)cc3c(=O)c(C(=O)O)cn(C4CC4)c3c2OC)CC1/C(N)=N\OC (stereo not given)
target.system: Klebsiella pneumoniae
MIC: > 128 µg/mL

compound: CCO/N=C1\CN(c2c(F)cc3c(=O)c(C(=O)O)cn(CC)c3c2F)CC1/C(N)=N\OC (stereo not given)
target.system: Klebsiella pneumoniae
MIC: > 128 µg/mL

compound: CO/N=C1\CN(c2nc3c(cc2F)c(=O)c(C(=O)O)cn3-c2ccc(F)cc2F)CC1/C(N)=N\OC (stereo not given)
target.system: Klebsiella pneumoniae
MIC: > 128 µg/mL

compound: CCO/N=C1\CN(c2nc3c(cc2F)c(=O)c(C(=O)O)cn3-c2ccc(F)cc2F)CC1/C(N)=N\OCC (stereo not given)
target.system: Klebsiella pneumoniae
MIC: 128 µg/mL

Q) Would you kindly share the measured MIC for CCO/N=C1\CN(c2c(F)cc3c(=O)c(C(=O)O)cn(C4CC4)c3c2OC(F)F)CC1/C(N)=N\O (stereo not given) ?
A) > 128 µg/mL

Q) Would you kindly share the measured MIC for CCO/N=C(/N)C1CN(c2nc3c(cc2F)c(=O)c(C(=O)O)cn3-c2ccc(F)cc2F)C/C1=N\OC (stereo not given) ?
A) > 128 µg/mL

Q) Would you kindly share the measured MIC for CCO/N=C(/N)C1CN(c2c(F)cc3c(=O)c(C(=O)O)cn(C4CC4)c3c2F)C/C1=N\OC (stereo not given) ?
A) > 128 µg/mL

Q) Would you kindly share the measured MIC for CO/N=C1\CN(c2nc3c(cc2F)c(=O)c(C(=O)O)cn3C2CC2)CC1/C(N)=N\O (stereo not given) ?
A) > 128 µg/mL

Q) Would you kindly share the measured MIC for CCO/N=C1\CN(c2c(F)cc3c(=O)c(C(=O)O)cn(C4CC4)c3c2OC(F)F)CC1/C(N)=N\OCC (stereo not given) ?
A) > 128 µg/mL
